Values from ChEMBL document CHEMBL1125737

assay: 50% cytotoxic concentrations for mock-infected MT-4 cells.; format: cell-based, MT4; settings: human
Task for the reader: assign each of the following compounds its reported CC50.

cpd_smiles=O=C(O)c1cc(Cc2ccc(O)c(C(=O)O)c2)ccc1O measured_property=CC50 observed_result="> 100 µg/mL"
cpd_smiles=O=C(O)c1cc(Cc2cc(C(=O)O)c(O)c3ccccc23)c2ccccc2c1O measured_property=CC50 observed_result="73 µg/mL"
cpd_smiles=O=C(O)c1cccc(Cc2cccc(C(=O)O)c2O)c1O measured_property=CC50 observed_result="> 100 µg/mL"
cpd_smiles=O=C(O)c1cc(Cc2cc(Br)c(O)c(C(=O)O)c2)cc(Br)c1O measured_property=CC50 observed_result="> 100 µg/mL"

// each listed compound needs a value for CC50
1. O=C(O)c1cc(Br)cc(Cc2cc(Br)cc(C(=O)O)c2O)c1O
2. O=C(O)c1cc(Cc2cc(Cl)c(O)c(C(=O)O)c2)cc(Cl)c1O

Found:
> 100 µg/mL
> 100 µg/mL

* * *

Kindly state CC50 for each of the entries shown.
assay: 50% cytotoxic concentrations for mock-infected MT-4 cells; assay type: cell-based, MT4; details: human
One number for each entry, in µg/mL.

cpd_smiles=O=C(O)c1cc(C(c2ccc(O)c(C(=O)O)c2)c2ccc(O)c(C(=O)O)c2)ccc1O measured_property=CC50 unit_annotation=µg/mL observed_result=256
cpd_smiles=COC(=O)c1cc(C(c2ccc(O)c(C(=O)OC)c2)c2ccc(O)c(C(=O)OC)c2)ccc1O measured_property=CC50 unit_annotation=µg/mL observed_result=52
cpd_smiles=Cc1cc(C(c2cc(C)c(O)c(C(=O)O)c2)c2cc(C)c(O)c(C(=O)O)c2)cc(C(=O)O)c1O measured_property=CC50 unit_annotation=µg/mL observed_result=82
cpd_smiles=O=C(O)C1=CC(=C(c2ccc(O)c(C(=O)O)c2)c2ccc(O)c(C(=O)O)c2)C=CC1=O measured_property=CC50 unit_annotation=µg/mL observed_result=280
cpd_smiles=O=C(O)c1cc(C(O)(c2ccc(O)c(C(=O)O)c2)c2ccc(O)c(C(=O)O)c2)ccc1O measured_property=CC50 unit_annotation=µg/mL observed_result=248

Lookup: Item "COC(=O)c1cc(C(O)(c2ccc(O)c(C(=O)OC)c2)c2ccc(O)c(C(=O)OC)c2)ccc1O" has what recorded CC50?
Found: 66

* * *

Would you kindly list IC50 for each of these compounds?
test system: HuT78; assay: Inhibitory concentration that reduced the number of gaint cells by 50% between HIV-2 infected HUT-78 cells and uninfected MOLT-4 cells; format: functional, cell-based; settings: Homo sapiens
Answers are plain numbers, in µg/mL.

Worked set:
compound=O=C(O)c1cc(C(O)(c2ccc(O)c(C(=O)O)c2)c2ccc(O)c(C(=O)O)c2)ccc1O observed_result=15
compound=O=C(O)c1cc(C(c2ccc(O)c(C(=O)O)c2)c2ccc(O)c(C(=O)O)c2)ccc1O observed_result=15

Lookup: Consider the compound O=C(O)C1=CC(=C(c2ccc(O)c(C(=O)O)c2)c2ccc(O)c(C(=O)O)c2)C=CC1=O [AURINTRICARBOXYLIC ACID] and give its measured IC50.
Found: 4

* * *

test system: HuT78; assay: Inhibitory concentration that reduced the number of gaint cells by 50% between HIV-2 infected HUT-78 cells and uninfected MOLT-4 cells; assay type: functional, cell-based; details: Homo sapiens
For each of the compounds below, state its IC50.

Solved entries (count: 3):
cpd_smiles=O=S(=O)([O-])c1cc(Cl)cc(Cc2cc(Cl)cc(S(=O)(=O)[O-])c2O)c1O.[Na+].[Na+] measured_property=IC50 observed_result="> 100 µg/mL"
cpd_smiles=COC(=O)c1cc(C(O)(c2ccc(O)c(C(=O)OC)c2)c2ccc(O)c(C(=O)OC)c2)ccc1O measured_property=IC50 observed_result="> 100 µg/mL"
cpd_smiles=Cc1cc(C(c2cc(C)c(O)c(C(=O)O)c2)c2cc(C)c(O)c(C(=O)O)c2)cc(C(=O)O)c1O measured_property=IC50 observed_result="> 20 µg/mL"

Please look at the following compound next.
Lookup: Name the recorded IC50 for "COC(=O)c1cc(C(c2ccc(O)c(C(=O)OC)c2)c2ccc(O)c(C(=O)OC)c2)ccc1O" .
Found: > 100 µg/mL
